Reported MIC values for a set of compounds
Tested on: Escherichia coli
assay.name: Antibacterial activity against Escherichia coli ATCC 25922 assessed as bacterial growth inhibition incubated for 16 to 18 hrs by broth microdilution method
Assay type: functional
condition.description: time 16-18 hrs

[
  {
    "compound": "COc1cc2oc3c(c(=O)c2c(O)c1/C=C/C(C)C)C(C=C(C)C)Oc1cc(O)ccc1-3 (stereo not drawn)",
    "MIC": "> 64 mg/L"
  },
  {
    "compound": "CN[C@H](CC(C)C)C(=O)N[C@H]1C(=O)N[C@@H](CC(N)=O)C(=O)N[C@H]2C(=O)N[C@H]3C(=O)N[C@H](C(=O)N[C@H](C(=O)O)c4cc(O)cc(O)c4-c4cc3ccc4O)[C@H](O)c3ccc(c(Cl)c3)Oc3cc2cc(c3O[C@@H]2O[C@H](CO)[C@@H](O)[C@H](O)[C@H]2O[C@H]2C[C@](C)(N)[C@H](O)[C@H](C)O2)Oc2ccc(cc2Cl)[C@H]1O [VANCOMYCIN]",
    "MIC": "512 mg/L"
  },
  {
    "compound": "Oc1cc(O)cc(/C=C/c2ccc(O)cc2O)c1 [OXYRESVERATROL]",
    "MIC": "> 64 mg/L"
  }
]
